Provenance of the data: paper PMC11784839

Kindly state raw data 1 for each of the entries shown.
study-target: tau (Homo sapiens, UniProt P10636)
Sequence (P10636 623-695 limits assumed): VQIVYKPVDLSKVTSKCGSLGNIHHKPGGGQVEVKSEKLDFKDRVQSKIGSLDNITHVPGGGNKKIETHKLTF
assay-protocol: MCE Phenols Library screening, tau biosensor cell seeding assay (AvZ)
Assay type: cell-based
measurement-conditions: raw puncta, replicate 1
One number for each entry.

Worked examples follow.
Short answer please: raw data 1, tau (Homo sapiens, UniProt P10636), entry `O=C(CCc1ccc(O)cc1)c1c(O)cc(O)cc1O[C@@H]1O[C@H](CO)[C@@H](O)[C@H](O)[C@H]1O` 22779.3

# returns recorded raw data 1 (system: tau (Homo sapiens, UniProt P10636)) for CC(=O)NCCc1c[nH]c2ccc(O)cc12 [N-Acetyl-5-hydroxytryptamine] 29776.2

Lab note: need raw data 1 with tau (Homo sapiens, UniProt P10636) for entry O=C(/C=C/c1ccc(O)cc1)OC[C@H]1O[C@@H](Oc2c(-c3ccc(O)cc3)oc3cc(O)cc(O)c3c2=O)[C@H](O)[C@@H](O)[C@@H]1O [Tribuloside] , please look it up. 17568.8

Checklist item: raw data 1 tested on tau (Homo sapiens, UniProt P10636), entry COc1cc(O)c2c(=O)c(O[C@@H]3O[C@H](CO)[C@@H](O)[C@H](O)[C@H]3O)c(-c3ccc(O[C@@H]4O[C@H](CO)[C@@H](O)[C@H](O)[C@H]4O)cc3)oc2c1 [Complanatuside] , value? 19953.5

Give tau (Homo sapiens, UniProt P10636) raw data 1 for `O=C1C[C@@H](c2ccc(O)c(O)c2)Oc2cc(O)cc(O)c21` 17267.7

Please state recorded raw data 1 (tested on tau (Homo sapiens, UniProt P10636)) of OCCc1ccc(O)c(O)c1 [Hydroxytyrosol] 25031.1

// for each compound below, give its raw data 1
1. OC[C@H]1O[C@@H](Oc2cc(O)cc(/C=C/c3ccc(O[C@@H]4O[C@H](CO)[C@@H](O)[C@H](O)[C@H]4O)cc3O)c2)[C@H](O)[C@@H](O)[C@@H]1O [Mulberroside A]
2. O=C(O)Cc1cc(O)ccc1O[C@@H]1O[C@H](CO)[C@@H](O)[C@H](O)[C@H]1O
3. O=c1c(O[C@@H]2OC[C@H](O)[C@H](O)[C@H]2O)c(-c2ccc(O)c(O)c2)oc2cc(O)cc(O)c12
4. COc1cc2c(cc1O)C[C@H]1c3cc(O)c(OC)cc3CC[N@@+]1(C)C2.[Cl-] [Phellodendrine (chloride)]

[24150.5, 25674.3, 25544.8, 29504.3]

Answer for every listed entry: what is its raw data 1? The entries follow.
1. COc1cc(O)cc(/C=C/c2ccc(O)cc2)c1
2. O=C(O)c1cccc(O)c1O
3. Oc1cc(O)c2c(c1)O[C@H](c1cc(O)c(O)c(O)c1)[C@H](O)C2 [(-)-Epigallocatechin]
4. COc1cc2cc(Oc3ccc4ccc(=O)oc4c3)c(=O)oc2cc1O
5. COc1cc(O)c2c(=O)cc(-c3ccc(O)c(O)c3)oc2c1 [Hydroxygenkwanin]

[27446.2, 26009.1, 21261.4, 23258.6, 21459.9]

Dear reader, for each entry below, please note its raw data 1.
1. COc1cc2c(c(O)c1OC)-c1c(cc(OC)c(OC)c1OC)C[C@@H](C)[C@@H](C)C2
2. CC(C)=CCc1c(O)cc2oc3cc(O)c(O)c(CC=C(C)C)c3c(=O)c2c1O
3. COc1cc2c(=O)c(-c3ccc(O)cc3)coc2cc1O

[21578.6, 21043.4, 27830.8]
